Test system: SW-620 colon
Method summary: NCI tumour cell line growth inhibition, 48 h
Parameter: GI50

Examples with answers:
CN(C)/[N+]([O-])=N/Oc1cc(Nc2ccc(C(=O)O)cc2)c([N+](=O)[O-])cc1[N+](=O)[O-]	45.4 µM
CN(C)CCn1cc(-c2ccc3c(Nc4ccc(CC(=O)Nc5cccc(F)c5)cc4)ncnc3c2)cn1	1.05 µM
Cn1cccc1-c1cc(-c2ccc(Br)cc2)nc(N)c1C#N	> 100 µM
CCCCCCCCSC1=CC(=O)C(OC)=C(OC)C1=O	1.71 µM
N#C/C(=C/N1CCN(C(=O)c2ccco2)C1=S)C(N)=O	22.1 µM
Fc1ccc(Nc2nc(Nc3ccc(-c4nc5ccccc5[nH]4)cc3)nc(N3CCCC3)n2)cc1	1.87 µM
O=C1NC(=NCc2ccccn2)S/C1=C\c1ccc2ncccc2c1	7.81 µM
Cc1nc2cc(O)c(O)cc2cc1Oc1ccc(NC(=O)Nc2ccc(Cl)c(Cl)c2)cc1	4.8 µM

Item CC(O)CN(CCN(CC(C)O)CC(C)O)CC(C)O.O=[N+]([O-])O.[Cu+2] (stereo not given) ; assay system SW-620 colon; GI50 reported as > 100 µM

Item CNCCNc1nc2ccccc2c2c(=O)c3cccc(OC)c3sc12 ; assay system SW-620 colon; GI50 reported as 0.575 µM

###

Recorded TGI for the following molecules
Test system: OVCAR-4 ovarian
Method summary: NCI tumour cell line growth inhibition, 48 h
The response must be a number in µM with no trailing unit.

Item CCCCN(CCCC)CC(=O)c1ccc2cc(Cl)c3ccccc3c2c1 ; assay system OVCAR-4 ovarian; TGI reported as 69.1

Item CC(C)(C)NNc1c([N+](=O)[O-])cnn(-c2ccccc2)c1=O ; assay system OVCAR-4 ovarian; TGI reported as 6.61

Item Cn1c2ccccc2c2c3c(c4c5ccccc5n(CCCCCC#N)c4c21)C(=O)N(O)C3=O ; assay system OVCAR-4 ovarian; TGI reported as 9.33

Item CCCCc1cc2c(cc1O)CCC1C2CC[C@@]2(C)C1CC[C@@H]2O (stereo partly drawn) ; assay system OVCAR-4 ovarian; TGI reported as 37.3

###

Tested on: KM20L2 colon
Method summary: NCI tumour cell line growth inhibition, 48 h
Parameter: TGI

CC(C)(C)c1cc(C(O)(C(F)(F)F)C(F)(F)F)c2c(c1)C(C(F)(F)F)(C(F)(F)F)OC(c1ccccc1)(C(C)(C)C)N2 (stereo not given)	21 µM
CCN(CCCl)CCNc1c2ccccc2nc2ccc(OC)cc12	3.45 µM
CCOC(=O)[C@H]1Nc2ccc(O)cc2C2c3ccccc3CC21 (stereo not given in full)	> 100 µM
N#Cc1nn(-c2ccc(Cl)cc2)c(N)c2c(=N)n3nc(-c4ccccc4)cc3nc12	> 100 µM

Then there is this molecule:
Item CCCCCCCCCCCCC(Br)C(=O)SCCNC(=O)CCNC(=O)[C@@H](O)C(C)(C)COP(=O)(O)OP(=O)(O)OCC1OC(n2cnc3c(N)ncnc32)C(O)C1OP(=O)(O)O (stereo not given in full) ; assay system KM20L2 colon; TGI reported as > 56.5 µM

###

System: HT29 colon
Method summary: NCI tumour cell line growth inhibition, 48 h
Parameter: TGI (µM)
The response must be a number in µM with no trailing unit.

Examples with answers:
Nc1nc(Cl)cc(NCC2(CO)CC(CCCCc3ccccc3)C2)n1 (stereo unspecified)	35.3
O=Nc1c(-c2cccc([N+](=O)[O-])c2)nc2ncccn12	44.1
NC(=O)NC(=O)CI	25.1
CC1(c2cccc(C3CCC4(C=CC3=O)OCCO4)c2)OCCO1 (stereo unspecified)	25.8

Then there is this molecule:
Item COc1ccccc1Nc1nc(-c2cc3cccc(C(F)(F)F)c3oc2=O)cs1 ; assay system HT29 colon; TGI reported as 11.9

###

Test system: SK-MEL-5 melanoma
Method summary: NCI tumour cell line growth inhibition, 48 h
Parameter: TGI (µM)
The response must be a number in µM with no trailing unit.

Examples with answers:
Cn1c2ccccc2c2c3c(c4c5ccccc5n(CCCCCC#N)c4c21)C(=O)N(O)C3=O	1.09
CC(=O)c1ccc2c(c1)CC1(C2)Cc2cc3c(cc2C1)C(=O)CC3 (stereo not given)	11.9
Cc1ccc(Cl)cc1Nc1nc(C(F)(F)F)ccc1C(=O)Oc1ccc(Cl)cc1	26.8

Then there is this compound:
The compound listed as NS(=O)(=O)c1ccc(CNC(=S)NC(=O)Nc2ccc(Cl)c(Cl)c2)cc1 shows TGI equal to 33

###

Tested on: SW-620 colon
Method summary: NCI tumour cell line growth inhibition, 48 h
Recorded TGI for the following compounds

N#Cc1ccc(Nc2nc3nc[nH]c3c(=O)[nH]2)cc1	> 100 µM
COc1ccc(NS(=O)C2CCCCC2)cc1 (configuration not stated)	> 100 µM
COc1ccccc1NC(=O)C1=C(C)NC(C)=C(C(=O)Nc2ccccc2OC)C1c1ccc(C(C)C)cc1	> 100 µM
CC1SC(c2cccs2)N(NC(=O)C(O)c2ccccc2)C1=O (configuration not stated)	> 100 µM
Cn1cccc1-c1cc(-c2ccc(Br)cc2)nc(N)c1C#N	> 100 µM
CC1(C)OC1CC/C(=C/CBr)CBr (configuration not stated)	28.7 µM
CC(C)(C)c1ccc(-c2nnc(SCc3ccc(Cl)cc3)n2-c2cccc(C(F)(F)F)c2)cc1	> 100 µM
O=C(O)CCCN1CCCCC1	> 100 µM

Item CC(=O)NC1C(OCC(=O)NC(C)C(=O)NC(CCC(=O)NCCCCCNc2ccc([N+](=O)[O-])c3[nH]c4ccccc4c(=O)c23)C(N)=O)C(O)C(CO)OC1(C)OCc1ccccc1 (configuration not stated) ; assay system SW-620 colon; TGI reported as > 50 µM

Item CN(C)CCn1cc(-c2ccc3c(Nc4ccc(CC(=O)Nc5cccc(F)c5)cc4)ncnc3c2)cn1 ; assay system SW-620 colon; TGI reported as 2.91 µM

Item C=C1C(=O)O[C@H]2C1C[C@@H](O)[C@@]1(C)OC1CC[C@@]1(C)O[C@H]21 (some centres not stated) ; assay system SW-620 colon; TGI reported as 38.5 µM

Item Cn1c2ccccc2c2c3c(c4c5ccccc5n(CCCCCC#N)c4c21)C(=O)N(O)C3=O ; assay system SW-620 colon; TGI reported as > 100 µM

Item O=C(O)/C(Cl)=C(/Cl)C(=O)Nc1cccc(Cl)c1 ; assay system SW-620 colon; TGI reported as 32.1 µM

Item Cc1nc2cc(O)c(O)cc2cc1Oc1ccc(NC(=O)Nc2ccc(Cl)c(Cl)c2)cc1 ; assay system SW-620 colon; TGI reported as > 32.5 µM

Item Cc1nn(-c2ccccc2)c(C)c1/C=N/NC(=O)c1sc(=S)n(-c2ccc(Cl)cc2)c1N ; assay system SW-620 colon; TGI reported as > 100 µM

Item c1ccc(COc2nc3ccc(C45CC6CC(CC(C6)C4)C5)cc3[nH]2)cc1 ; assay system SW-620 colon; TGI reported as > 100 µM

Item CCCCOC(=O)N[C@H]1CCc2cc(OC)c(OC)c(OC)c2-c2ccc(SC)c(=O)cc21 ; assay system SW-620 colon; TGI reported as 79 µM

Item O=C(Nc1ccccc1Cl)c1ccc(NC2=C(Cl)C(=O)N(Cc3ccccc3)C2=O)cc1 ; assay system SW-620 colon; TGI reported as 58.1 µM

Item CC(C)(C)c1cc(C2COC(=O)COCCOCC(=O)OCCOCCO2)cc(C(C)(C)C)c1O (configuration not stated) ; assay system SW-620 colon; TGI reported as > 100 µM

Item CC1=C(C(=O)Nc2ccc(F)c(Cl)c2)C(c2cccc(Cl)c2)NC(=O)N1 (configuration not stated) ; assay system SW-620 colon; TGI reported as 40.7 µM

Item CCOC(=O)/C(O)=C(\C=N\C(=S)Nc1ccc(Cl)c(Cl)c1)C(=O)OCC ; assay system SW-620 colon; TGI reported as > 100 µM

Item COC(=O)CCCc1ccc2c(c1)CCC2 ; assay system SW-620 colon; TGI reported as > 100 µM

Item COc1ccc(C(=O)Nc2cccc(C3CC(=O)c4c(cc(OC)c(OC)c4OC)O3)c2)cc1 (configuration not stated) ; assay system SW-620 colon; TGI reported as > 100 µM

Item CC(=O)O[C@H]1C(=O)[C@]2(C)[C@@H](OC(=O)OCC(O)CO)C[C@H]3OC[C@@]3(OC(C)=O)[C@H]2[C@H](OC(=O)c2ccccc2)[C@]2(O)C[C@H](OC(=O)[C@H](O)[C@@H](NC(=O)c3ccccc3)c3ccccc3)C(C)=C1C2(C)C (some centres not stated) ; assay system SW-620 colon; TGI reported as 22.1 µM

Item COc1ccc(N=NN2CCCC2)cc1 ; assay system SW-620 colon; TGI reported as 81.4 µM

Item COC(=O)c1ccc2c(c1)nc(-c1ccc(Cl)cc1)n2-c1cc(C(C)(C)C)[nH]n1 ; assay system SW-620 colon; TGI reported as > 100 µM

Item CCCCc1cc2c(cc1O)CCC1C2CC[C@@]2(C)C1CC[C@@H]2O (some centres not stated) ; assay system SW-620 colon; TGI reported as 59.2 µM

Item O=C1C(c2ccccc2)=C(c2ccccc2)C(c2ccccc2)/C1=C1\C(=O)C(c2ccccc2)=C(c2ccccc2)C1c1ccccc1 (configuration not stated) ; assay system SW-620 colon; TGI reported as > 100 µM

Item CC(C)[C@]12O[C@H]1[C@@H]1O[C@]13[C@]1(O[C@H]1C[C@H]1c4c(C(=O)c5ccccc5)oc(OC(=O)c5ccccc5)c4CC[C@@]13C)[C@@H]2O ; assay system SW-620 colon; TGI reported as 3.89 µM

Item NS(=O)(=O)c1ccc(CNC(=S)NC(=O)Nc2ccc(Cl)c(Cl)c2)cc1 ; assay system SW-620 colon; TGI reported as 44.7 µM
